- Experimental system: Beta-2 adrenergic receptor (Homo sapiens, UniProt P07550)
- Sequence (P07550 whole entry): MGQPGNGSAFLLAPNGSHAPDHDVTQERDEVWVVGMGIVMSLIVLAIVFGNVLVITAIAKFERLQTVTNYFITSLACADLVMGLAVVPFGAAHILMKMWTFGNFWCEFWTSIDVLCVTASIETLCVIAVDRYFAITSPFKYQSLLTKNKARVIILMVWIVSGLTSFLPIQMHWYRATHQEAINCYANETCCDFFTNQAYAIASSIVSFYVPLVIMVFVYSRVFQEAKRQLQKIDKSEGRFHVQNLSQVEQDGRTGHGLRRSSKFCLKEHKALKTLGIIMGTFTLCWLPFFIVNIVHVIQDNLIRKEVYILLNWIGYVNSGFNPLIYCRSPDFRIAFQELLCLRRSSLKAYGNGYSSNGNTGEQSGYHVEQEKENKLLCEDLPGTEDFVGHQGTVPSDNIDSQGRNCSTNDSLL
- Assay details: Agonist activity at Adrenergic b2 receptor (unknown origin)
- Format: functional
Readout: EC50

O=C(O)c1ccc(CN2CCC(CN[C@@H]3C[C@H]3c3ccccc3)CC2)cc1    > 32 µM

query: What does the record list as EC50 for "c1ccc([C@@H]2C[C@H]2NC2CCNCC2)cc1" ?
result: > 100 µM

====

- Experimental system: 5-hydroxytryptamine receptor 2C (Homo sapiens)
- Sequence (P28335 whole entry): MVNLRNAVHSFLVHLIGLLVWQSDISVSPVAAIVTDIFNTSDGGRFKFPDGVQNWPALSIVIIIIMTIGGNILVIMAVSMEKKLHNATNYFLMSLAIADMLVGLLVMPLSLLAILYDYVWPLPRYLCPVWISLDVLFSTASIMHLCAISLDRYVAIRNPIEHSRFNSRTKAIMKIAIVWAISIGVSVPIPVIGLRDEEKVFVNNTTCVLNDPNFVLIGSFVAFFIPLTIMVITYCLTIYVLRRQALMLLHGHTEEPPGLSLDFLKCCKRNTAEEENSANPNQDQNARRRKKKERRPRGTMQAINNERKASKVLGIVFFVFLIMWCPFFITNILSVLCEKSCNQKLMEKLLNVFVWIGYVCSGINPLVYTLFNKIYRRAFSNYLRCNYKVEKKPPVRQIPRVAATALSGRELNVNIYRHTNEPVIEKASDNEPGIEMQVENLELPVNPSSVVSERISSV
- Assay details: Antagonist activity at 5-HT2C receptor (unknown origin)
- Format: functional
pEC50: −log10 of the molar value.
Readout: pEC50

O=C(O)c1ccc(CN2CCC(CN[C@@H]3C[C@H]3c3ccccc3)CC2)cc1    < 4.40

Please turn your attention to the following entry.
query: Which pEC50 reading was recorded for the compound "c1ccc([C@@H]2C[C@H]2NC2CCNCC2)cc1" ?
result: < 4.60

All figures here come from ChEMBL document CHEMBL5705903.
